Kindly state MIC (μg/mL) E. faecalis for each of the entries shown.
test system: E. faecalis; test: MIC assay, E. faecalis; assay type: cell-based, Enterococcus faecalis
# include the unit after the value

{"compound": "CO[C@H]1/C=C/O[C@@]2(C)Oc3c(C)c(O)c4c(=O)c(c5oc6cc(N7CCC(N)CC7)cc(O)c6nc-5c4c3C2=O)NC(=O)/C(C)=C\\C=C\\[C@H](C)[C@H](O)[C@@H](C)[C@@H](O)[C@@H](C)[C@H](OC(C)=O)[C@@H]1C [Compound 33]", "test.result": "1 µg/mL"}

Attention now turns to another entry.
Provide MIC (μg/mL) E. faecalis value for the following compound: COC1C=COC2(C)Oc3c(C)c(O)c4c(=O)c(c5oc6cc(N7CCC(NC(=O)OC(C)(C)C)CC7)cc(O)c6nc-5c4c3C2=O)NC(=O)C(C)=CC=CC(C)C(O)C(C)C(O)C(C)C(OC(C)=O)C1C (centres unmarked) [Compound 48]
2 µg/mL

* * *

test system: E. faecalis; experiment: MIC assay, E. faecalis; format: cell-based, Enterococcus faecalis
measurement.type: MIC (μg/mL) E. faecalis (µg/mL)
Give bare numbers, in µg/mL.

{"compound": "CO[C@H]1/C=C/O[C@@]2(C)Oc3c(C)c(O)c4c(=O)c(c5oc6cc(N7CCC(NC(=O)OC(C)C)CC7)cc(O)c6nc-5c4c3C2=O)NC(=O)/C(C)=C\\C=C\\[C@H](C)[C@H](O)[C@@H](C)[C@@H](O)[C@@H](C)[C@H](O)[C@@H]1C", "MIC (μg/mL) E. faecalis (µg/mL)": 2}

Now for another entry.
Give the measured MIC (μg/mL) E. faecalis for COC1C=COC2(C)Oc3c(C)c(O)c4c(=O)c(c5oc6cc(N7CC8CCCN(C(C)=O)C8C7)cc(O)c6nc-5c4c3C2=O)NC(=O)C(C)=CC=CC(C)C(O)C(C)C(O)C(C)C(O)C1C (centres unmarked)
2

* * *

system: H. flu; assay type: cell-based, H. influenza; details: H. flu
measurement.type: MIC (μg/mL) H. flu (µg/mL)
Answers are plain numbers, in µg/mL.

{"compound": "COC1C=COC2(C)Oc3c(C)c(O)c4c(=O)c(c5oc6cc(N7CCCC7)c(C7CCCCC7)cc6nc-5c4c3C2=O)NC(=O)C(C)=CC=CC(C)C(O)C(C)C(O)C(C)C(O)C1C (centres unmarked)", "test.system": "H. flu", "MIC (μg/mL) H. flu / µg/mL": 8}
{"compound": "CO[C@H]1/C=C/O[C@@]2(C)Oc3c(C)c(O)c4c(=O)c(c5oc6cc(N7CC8CCC(C7)N8)cc(O)c6nc-5c4c3C2=O)NC(=O)/C(C)=C\\C=C\\[C@H](C)[C@H](O)[C@@H](C)[C@@H](O)[C@@H](C)[C@H](O)[C@@H]1C", "test.system": "H. flu", "MIC (μg/mL) H. flu / µg/mL": 0.25}
{"compound": "CCNC(=O)NC1CCN(c2cc(O)c3nc4c5c6c7c(C)c(O)c5c(=O)c(c-4oc3c2)NC(=O)/C(C)=C\\C=C\\[C@H](C)[C@H](O)[C@@H](C)[C@@H](O)[C@@H](C)[C@H](OC(C)=O)[C@H](C)[C@@H](OC)/C=C/O[C@@](C)(O7)C6=O)CC1", "test.system": "H. flu", "MIC (μg/mL) H. flu / µg/mL": 0.5}

Report MIC (μg/mL) H. flu for every entry below.
1. COC1C=COC2(C)Oc3c(C)c(O)c4c(=O)c(c5sc6cc(N7CCCN(C)CC7)ccc6nc-5c4c3C2=O)NC(=O)C(C)=CC=CC(C)C(O)C(C)C(O)C(C)C(O)C1C (centres unmarked)
2. COC1C=COC2(C)Oc3c(C)c(O)c4c(=O)c(c5oc6cc(N7CCC(F)C7)ccc6nc-5c4c3C2=O)NC(=O)C(C)=CC=CC(C)C(O)C(C)C(O)C(C)C(O)C1C (centres unmarked)

1. 0.12
2. 0.06

* * *

Kindly state MIC (μg/mL) E. faecalis for each of the entries shown.
system: E. faecalis; test: MIC assay, E. faecalis; assay type: cell-based, Enterococcus faecalis
Give bare numbers, in µg/mL.

{"compound": "CO[C@H]1/C=C/O[C@@]2(C)Oc3c(C)c(O)c4c(=O)c(c5oc6cc(N7CCC(NS(=O)(=O)C(F)(F)F)CC7)cc(O)c6nc-5c4c3C2=O)NC(=O)/C(C)=C\\C=C\\[C@H](C)[C@H](O)[C@@H](C)[C@@H](O)[C@@H](C)[C@H](OC(C)=O)[C@@H]1C", "endpoint.unit": "µg/mL", "MIC (μg/mL) E. faecalis": 4}

Quickly give me recorded MIC (μg/mL) E. faecalis for CCOC(=O)N1CCCC2CN(c3cc(O)c4nc5c6c7c8c(C)c(O)c6c(=O)c(c-5oc4c3)NC(=O)C(C)=CC=CC(C)C(O)C(C)C(O)C(C)C(OC(C)=O)C(C)C(OC)C=COC(C)(O8)C7=O)CC21 (single isomer, unassigned)
1

* * *

Assign MIC (μg/mL) E. faecalis to each entry below.
test system: E. faecalis; assay: MIC assay, E. faecalis; format: cell-based, Enterococcus faecalis
Answers are plain numbers, in µg/mL.

{"compound": "COC1C=COC2(C)Oc3c(C)c(O)c4c(=O)c(c5oc6cc(N(C)CCC#N)ccc6nc-5c4c3C2=O)NC(=O)C(C)=CC=CC(C)C(O)C(C)C(O)C(C)C(O)C1C (centres unmarked)", "MIC (μg/mL) E. faecalis / µg/mL": 0.5}

For each entry beneath this line, provide reported MIC (μg/mL) E. faecalis.
1. COC1C=COC2(C)Oc3c(C)c(O)c4c(=O)c(c5sc6cc(N7CCOCC7)ccc6nc-5c4c3C2=O)NC(=O)C(C)=CC=CC(C)C(O)C(C)C(O)C(C)C(O)C1C (centres unmarked)
2. CCOC(=O)C1CCN(c2cc(O)c3nc4c5c6c7c(C)c(O)c5c(=O)c(c-4oc3c2)NC(=O)/C(C)=C\C=C\[C@H](C)[C@H](O)[C@@H](C)[C@@H](O)[C@@H](C)[C@H](O)[C@H](C)[C@@H](OC)/C=C/O[C@@](C)(O7)C6=O)CC1
3. CO[C@H]1/C=C/O[C@@]2(C)Oc3c(C)c(O)c4c(=O)c(c5n(C)c6ccccc6nc-5c4c3C2=O)NC(=O)/C(C)=C\C=C\[C@H](C)[C@H](O)[C@@H](C)[C@@H](O)[C@@H](C)[C@H](O)[C@@H]1C

0.5
0.5
2

* * *

tested on: E. faecalis; assay: MIC assay, E. faecalis; assay type: cell-based, Enterococcus faecalis
Kindly supply the reported MIC (μg/mL) E. faecalis values for the records listed here.
Answers are plain numbers, in µg/mL.

Below, each entry is followed by its recorded MIC (μg/mL) E. faecalis result.
{"molecule": "COC1C=COC2(C)Oc3c(C)c(O)c4c(=O)c(c5oc6cc(N7CCN8CCCC8C7)cc(O)c6nc-5c4c3C2=O)NC(=O)C(C)=CC=CC(C)C(O)C(C)C(O)C(C)C(O)C1C (stereo not shown) [Compound 83]", "MIC (μg/mL) E. faecalis (µg/mL)": 0.03}
{"molecule": "COC1C=COC2(C)Oc3c(C)c(O)c4c(=O)c(c5oc6cc(N7CCN(CCN(C)C)CC7)cc(O)c6nc-5c4c3C2=O)NC(=O)C(C)=CC=CC(C)C(O)C(C)C(O)C(C)C(O)C1C (stereo not shown)", "MIC (μg/mL) E. faecalis (µg/mL)": 0.5}
{"molecule": "CCOc1c(N2CCN(CCOC)CC2)cc(N2CCN(CCOC)CC2)c2nc3c4c5c6c(C)c(O)c4c(=O)c(c-3oc12)NC(=O)C(C)=CC=CC(C)C(O)C(C)C(O)C(C)C(O)C(C)C(OC)C=COC(C)(O6)C5=O (stereo not shown)", "MIC (μg/mL) E. faecalis (µg/mL)": 8}
{"molecule": "COC1C=COC2(C)Oc3c(C)c(O)c4c(=O)c(c5oc6cc(N7CCC(F)(F)CC7)ccc6nc-5c4c3C2=O)NC(=O)C(C)=CC=CC(C)C(O)C(C)C(O)C(C)C(O)C1C (stereo not shown)", "MIC (μg/mL) E. faecalis (µg/mL)": 1}
{"molecule": "COC1C=COC2(C)Oc3c(C)c(O)c4c(=O)c(c5oc6cc(N(C)C7CCN(C)CC7)cc(O)c6nc-5c4c3C2=O)NC(=O)C(C)=CC=CC(C)C(O)C(C)C(O)C(C)C(O)C1C (stereo not shown)", "MIC (μg/mL) E. faecalis (µg/mL)": 0.5}

State the recorded MIC (μg/mL) E. faecalis for every item in the following list.
1. CCNC(=O)NC1CCN(c2cc(O)c3nc4c5c6c7c(C)c(O)c5c(=O)c(c-4oc3c2)NC(=O)C(C)=CC=CC(C)C(O)C(C)C(O)C(C)C(O)C(C)C(OC)C=COC(C)(O7)C6=O)CC1 (stereo not shown)
2. COC1C=COC2(C)Oc3c(C)c(O)c4c(=O)c(c5oc6cc(N7CCC(NC(=O)N8CCC(NC(=O)SC)CC8)CC7)cc(O)c6nc-5c4c3C2=O)NC(=O)C(C)=CC=CC(C)C(O)C(C)C(O)C(C)C(OC(C)=O)C1C (stereo not shown)

[2, 8]

Value sought for every listed molecule: MIC (μg/mL) E. faecalis.
1. COC1C=COC2(C)Oc3c(C)c(O)c4c(=O)c(c5oc6cc(N7CC8C(N)C8C7)cc(O)c6nc-5c4c3C2=O)NC(=O)C(C)=CC=CC(C)C(O)C(C)C(O)C(C)C(OC(C)=O)C1C (stereo not shown)
2. CO[C@H]1/C=C/O[C@@]2(C)Oc3c(C)c(O)c4c(=O)c(c5oc6cc(N7CCC(N8CCOCC8)CC7)cc(O)c6nc-5c4c3C2=O)NC(=O)/C(C)=C\C=C\[C@H](C)[C@H](O)[C@@H](C)[C@@H](O)[C@@H](C)[C@H](O)[C@@H]1C
3. COC1C=COC2(C)Oc3c(C)c(O)c4c(=O)c(c5oc6cc(N7CC(C)NCC7C)cc(O)c6nc-5c4c3C2=O)NC(=O)C(C)=CC=CC(C)C(O)C(C)C(O)C(C)C(O)C1C (stereo not shown)
4. COCCOC(=O)NC1CCN(c2cc(O)c3nc4c5c6c7c(C)c(O)c5c(=O)c(c-4oc3c2)NC(=O)C(C)=CC=CC(C)C(O)C(C)C(O)C(C)C(O)C(C)C(OC)C=COC(C)(O7)C6=O)CC1 (stereo not shown)
5. COC1C=COC2(C)Oc3c(C)c(O)c4c(=O)c(c5oc6cc(N7CCC(NC(=O)OC(C)(C)C)CC7)cc(O)c6nc-5c4c3C2=O)NC(=O)C(C)=CC=CC(C)C(O)C(C)C(O)C(C)C(O)C1C (stereo not shown)
6. COC1C=COC2(C)Oc3c(C)c(O)c4c(=O)c(c5oc6cc(N7CCN(CC8CC8)CC7)cc(O)c6nc-5c4c3C2=O)NC(=O)C(C)=CC=CC(C)C(O)C(C)C(O)C(C)C(O)C1C (stereo not shown)

[0.5, 0.25, 0.12, 1, 4, 0.06]

Give one value of MIC (μg/mL) E. faecalis per listed molecule.
1. COC1C=COC2(C)Oc3c(C)c(O)c4c(=O)c(c5oc6cc(N7CC(C)CC(C)C7)cc(O)c6nc-5c4c3C2=O)NC(=O)C(C)=CC=CC(C)C(O)C(C)C(O)C(C)C(O)C1C (stereo not shown)
2. COC1C=COC2(C)Oc3c(C)c(O)c4c(=O)c(c5oc6cc(N7CCN8CCCC8C7)cc(O)c6nc-5c4c3C2=O)NC(=O)C(C)=CC=CC(C)C(O)C(C)C(O)C(C)C(O)C1C (stereo not shown) [Compound 84]

[1, 0.03]

Reference for the values: patent US7271165B2
